Parameter pEC50: see the listing below.
# experimental_target: hTRPM8 (Homo sapiens, UniProt Q7Z2W7)
# Construct: expressed in transfected cells
# Sequence (Q7Z2W7 whole entry): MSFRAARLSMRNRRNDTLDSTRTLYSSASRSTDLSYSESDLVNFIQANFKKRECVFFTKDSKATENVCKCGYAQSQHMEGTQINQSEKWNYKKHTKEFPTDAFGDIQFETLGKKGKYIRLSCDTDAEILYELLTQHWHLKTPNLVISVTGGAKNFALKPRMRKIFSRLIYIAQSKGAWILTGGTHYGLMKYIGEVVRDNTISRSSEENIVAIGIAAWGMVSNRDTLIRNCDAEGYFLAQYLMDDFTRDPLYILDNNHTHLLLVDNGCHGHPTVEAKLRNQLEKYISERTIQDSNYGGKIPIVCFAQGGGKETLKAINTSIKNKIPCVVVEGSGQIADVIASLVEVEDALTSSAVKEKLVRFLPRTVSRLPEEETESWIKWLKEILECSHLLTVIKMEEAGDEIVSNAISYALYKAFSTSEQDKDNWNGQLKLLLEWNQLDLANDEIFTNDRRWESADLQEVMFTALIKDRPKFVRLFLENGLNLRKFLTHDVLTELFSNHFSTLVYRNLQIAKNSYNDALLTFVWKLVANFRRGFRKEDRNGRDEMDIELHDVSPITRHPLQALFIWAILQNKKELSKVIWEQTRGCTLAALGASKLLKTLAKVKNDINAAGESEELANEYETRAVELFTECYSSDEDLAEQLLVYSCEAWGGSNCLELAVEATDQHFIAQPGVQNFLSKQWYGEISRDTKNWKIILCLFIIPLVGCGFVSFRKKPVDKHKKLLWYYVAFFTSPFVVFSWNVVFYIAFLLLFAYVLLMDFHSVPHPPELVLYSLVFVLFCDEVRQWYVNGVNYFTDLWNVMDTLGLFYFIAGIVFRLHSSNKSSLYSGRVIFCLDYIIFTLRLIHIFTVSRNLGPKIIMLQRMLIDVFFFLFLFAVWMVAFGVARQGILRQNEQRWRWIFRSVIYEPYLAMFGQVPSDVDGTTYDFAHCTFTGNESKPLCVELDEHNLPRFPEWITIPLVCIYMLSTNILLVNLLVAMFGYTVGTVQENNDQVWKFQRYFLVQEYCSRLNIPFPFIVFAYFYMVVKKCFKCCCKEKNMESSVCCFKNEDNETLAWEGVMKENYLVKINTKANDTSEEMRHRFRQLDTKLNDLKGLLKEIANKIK
# test_method_notes: hTRPM8 agonist assay in a mammalian cell line stably expressing hTRPM8
# Format: cell-based
# condition_label: cell line stably expressing hTRPM8; read-out: EC50
As a rule, pEC50 stands for the negative log10 of the concentration, concentration in M.

Cc1ccc(OCC(=O)N(Cc2cccs2)c2ccn[nH]2)cc1 [Comparative Compound 1, reference compound] :: 9.52
COc1ccc(OCC(=O)N(Cc2cccs2)c2cc[nH]n2)cc1 :: 8.31
O=C(COc1ccc(F)cc1)N(Cc1cccs1)c1cc[nH]n1 :: 7.97

# pEC50 (compound: Cc1cccc(OCC(=O)N(Cc2cccs2)c2cc[nH]n2)c1 ) is 8.21

###

# test_method_notes: Solubility studies
# Format: physicochemical
# condition_label: aqueous buffer; pH 4.0; read-out: Solubility (pH 4.0)
Parameter solubility: see the listing below.
Expressed in µM, but write only the number.

Cc1ccc(OCC(=O)N(Cc2cccs2)c2ccn[nH]2)cc1 [Comparative Compound 1, reference compound] :: 106

# solubility (compound: Cc1cccc(OCC(=O)N(Cc2cccs2)c2cc[nH]n2)c1 ) is 517
